Record form. Attribute: pIC50. Fill in for each entry.
measurement_target: Renin (Canis familiaris)
test_method_notes: Inhibition of Renin
Residues, ends and D or L forms follow the SMILES beside them.
Reminder that pIC50 means the negative base-10 logarithm of the concentration expressed in mol/L.

Test item CCOC(=O)N[C@@H](Cc1ccccc1)C(=O)N[C@@H](Cc1c[nH]cn1)C(=O)N[C@@H](CC1CCCCC1)[C@@H](O)CC(=O)N[C@@H](CC(C)C)C(=O)N[C@@H](Cc1ccccc1)C(N)=O (HELM PEPTIDE1{[CCOC(=O)[*:2]].F.H.[O=C(C[C@H](O)[C@H](CC1CCCCC1)N[*:1])[*:2]].L.F.[am]}$$$$V2.0) ; Renin (Canis familiaris); reported pIC50 was 8.02

Test item CC(C)C[C@H](NC(=O)C[C@H](O)[C@H](CC1CCCCC1)NC(=O)[C@H](Cc1c[nH]cn1)NC(=O)[C@H](Cc1ccccc1)NC(=O)OC(C)C)C(=O)N[C@@H](Cc1ccccc1)C(N)=O (HELM PEPTIDE1{[CC(C)OC(=O)[*:2]].F.H.[O=C(C[C@H](O)[C@H](CC1CCCCC1)N[*:1])[*:2]].L.F.[am]}$$$$V2.0) ; Renin (Canis familiaris); reported pIC50 was 7.70

Test item CC(C)C[C@H](NC(=O)C[C@H](O)[C@H](CC1CCCCC1)NC(=O)[C@H](Cc1c[nH]cn1)NC(=O)[C@H](Cc1ccccc1)NC(=O)OC(C)(C)C)C(=O)N[C@@H](Cc1ccccc1)C(N)=O (HELM PEPTIDE1{[CC(C)(C)OC(=O)[*:2]].F.H.[O=C(C[C@H](O)[C@H](CC1CCCCC1)N[*:1])[*:2]].L.F.[am]}$$$$V2.0) ; Renin (Canis familiaris); reported pIC50 was 7.89

----------
measurement_target: Renin (Homo sapiens, UniProt P00797)
Sequence (P00797 whole entry): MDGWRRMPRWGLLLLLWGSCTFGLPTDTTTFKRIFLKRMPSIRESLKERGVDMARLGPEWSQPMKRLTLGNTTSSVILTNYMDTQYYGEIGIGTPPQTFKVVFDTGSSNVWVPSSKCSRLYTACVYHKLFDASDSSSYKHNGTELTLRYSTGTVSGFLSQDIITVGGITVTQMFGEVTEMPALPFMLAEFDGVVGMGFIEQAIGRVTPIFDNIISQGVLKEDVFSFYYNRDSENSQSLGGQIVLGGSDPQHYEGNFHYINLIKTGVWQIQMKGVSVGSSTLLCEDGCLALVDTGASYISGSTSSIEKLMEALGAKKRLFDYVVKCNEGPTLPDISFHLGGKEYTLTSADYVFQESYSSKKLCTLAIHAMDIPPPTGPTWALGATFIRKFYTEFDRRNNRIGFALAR
test_method_notes: Inhibition of human plasma renin
Residues, ends and D or L forms follow the SMILES beside them.
endpoint_label: pIC50
Reminder that pIC50 means the negative base-10 logarithm of the concentration expressed in mol/L.

Memo: CC(C)C[C@H](NC(=O)C[C@H](O)[C@H](CC1CCCCC1)NC(=O)[C@H](Cc1c[nH]cn1)NC(=O)[C@H](Cc1ccccc1)NC(=O)OC(C)(C)C)C(=O)N[C@@H](Cc1ccccc1)C(N)=O (HELM PEPTIDE1{[CC(C)(C)OC(=O)[*:2]].F.H.[O=C(C[C@H](O)[C@H](CC1CCCCC1)N[*:1])[*:2]].L.F.[am]}$$$$V2.0) , reported pIC50: 8.66
